- Protocol details: Mammalian toxicity, LD50 (rat)
- Assay conditions: in vivo
Experimental readout: LD50

{"columns": ["Molecule", "Result value"],
 "data": [
  ["CC(C)=CC1C(C(=O)OC2COc3ccccc32)C1(C)C (racemic)", "> 7570 mg/kg"]
]}
